The reported numbers originate from patent US20190337924A1.

target: wild-type Androgen Receptor (AR-wt) (Homo sapiens, UniProt P10275); construct: expressed in transfected cells; host or cells: LNCaP; assay: AR reporter assay, LNCaP-AR-wt ANT (antagonist mode); format: cell-based; settings: read-out: LNCaP-AR-wt ANT MAX % Inh
Counter-ions that a name gives are not always drawn.
observedProperty: Emax (%)
Give bare numbers, in %.

# compound, Emax / %
data = [
    ("Cc1cc(N2C(=O)C3(CCC3)N(c3ccc(OC4CCN(C)CC4)cc3)C2=S)ccc1C#N [Compound 17]", 105),
]

Give one value of Emax per listed compound.
1. CC1(C)C(=O)N(c2ccc(C#N)c(Cl)c2)C(=S)N1c1ccc(OC2CCNCC2)nc1 [Compound 9, hydrochloride]
2. CN1CCC(Oc2ccc(N3C(=S)N(c4ccc(C#N)c(Cl)c4)C(=O)C3(C)C)cn2)CC1 [Compound 10, hydrochloride]
3. CN1CCC(Oc2ncc(N3C(=S)N(c4ccc(C#N)c(C(F)(F)F)c4)C(=O)C34CCC4)cn2)CC1 [Compound 16]
4. CC1(C)C(=O)N(c2ccc(C#N)c(C(F)(F)F)c2)C(=S)N1c1ccc(OC2CCNCC2)cc1 [Compound 1]
5. N#Cc1ccc(N2C(=O)C3(CCC3)N(c3ccc(OC4CCNCC4)nc3)C2=S)cc1Cl [Compound 23, hydrochloride]

RESULT:
1. 102
2. 102
3. 102
4. 106
5. 105

Give one value of Emax per listed compound.
1. CC1(C)C(=O)N(c2ccc(C#N)c(Cl)c2)C(=S)N1c1ccc(OC2CCNCC2)cc1 [Compound 7, hydrochloride]
2. CN1CCC(Oc2ccc(N3C(=S)N(c4ccc(C#N)c(C(F)(F)F)c4)C(=O)C34CCC4)cn2)CC1 [Compound 14]
3. N#Cc1ccc(N2C(=O)C3(CCC3)N(c3cnc(OC4CCNCC4)nc3)C2=S)cc1C(F)(F)F [Compound 15]
4. CN1CCC(Oc2ccc(N3C(=S)N(c4ccc(C#N)c(C(F)(F)F)c4)C(=O)C3(C)C)cn2)CC1 [Compound 4, hydrochloride]
5. CN1CCC(Oc2ccc(N3C(=S)N(c4ccc(C#N)c(C(F)(F)F)c4)C(=O)C34CCC4)cc2)CC1 [Compound 12]
6. COc1cc(N2C(=O)C3(CCC3)N(c3ccc(OC4CCN(C)CC4)nc3)C2=S)ccc1C#N [Compound 20]
7. CN1CCC(Oc2ccc(N3C(=S)N(c4ccc(C#N)c(C(F)(F)F)c4)C(=O)C3(C)C)cc2)CC1 [Compound 2, hydrochloride]
8. N#Cc1ccc(N2C(=O)C3(CCC3)N(c3ccc(OC4CCNCC4)cc3)C2=S)cc1Cl [Compound 21]

RESULT:
101
104
102
102
104
100
104
106

Give one value of Emax per listed compound.
1. Cc1cc(N2C(=O)C3(CCC3)N(c3ccc(OC4CCN(C)CC4)nc3)C2=S)ccc1C#N [Compound 18]
2. N#Cc1ccc(N2C(=O)C3(CCC3)N(c3ccc(OC4CCNCC4)nc3)C2=S)cc1C(F)(F)F [Compound 13, hydrochloride]
3. CC1(C)C(=O)N(c2ccc(C#N)c(C(F)(F)F)c2)C(=S)N1c1cnc(OC2CCNCC2)nc1 [Compound 5]
4. CN1CCC(Oc2ccc(N3C(=S)N(c4ccc(C#N)c(Cl)c4)C(=O)C34CCC4)cc2)CC1 [Compound 22]

RESULT:
[99.4, 104, 101, 98.4]

Give one value of Emax per listed compound.
1. CC1(C)C(=O)N(c2ccc(C#N)c(C(F)(F)F)c2)C(=S)N1c1ccc(OC2CCNCC2)nc1 [Compound 3, hydrochloride]
2. COc1cc(N2C(=O)C3(CCC3)N(c3ccc(OC4CCN(C)CC4)cc3)C2=S)ccc1C#N [Compound 19]
3. CN1CCC(Oc2ccc(N3C(=S)N(c4ccc(C#N)c(Cl)c4)C(=O)C3(C)C)cc2)CC1 [Compound 8, hydrochloride]

RESULT:
1. 103
2. 105
3. 103

Give one value of Emax per listed compound.
1. CN1CCC(Oc2ccc(N3C(=S)N(c4ccc(C#N)c(Cl)c4)C(=O)C34CCC4)cn2)CC1 [Compound 24, hydrochloride]
2. CN1CCC(Oc2ncc(N3C(=S)N(c4ccc(C#N)c(C(F)(F)F)c4)C(=O)C3(C)C)cn2)CC1 [Compound 6]
3. N#Cc1ccc(N2C(=O)C3(CCC3)N(c3ccc(OC4CCNCC4)cc3)C2=S)cc1C(F)(F)F [Compound 11]

RESULT:
1. 102
2. 102
3. 105

----------
target: F876L mutant Androgen Receptor (AR-F876L) (Homo sapiens, UniProt P10275, F877L); construct: expressed in transfected cells; host or cells: LNCaP; assay: AR reporter assay, LNCaP-AR-F876L ANT (antagonist mode); type: cell-based; conditions: antagonist mode, 600 pM R-1881 challenge, luciferase reporter; -Log10(IC50 in Molar); read-out: LNCaP-AR-F876L ANT pIC50 (converted)
Assign IC50 to each entry below.
Numbers only, in nM.

Give one value of IC50 per listed molecule.
1. COc1cc(N2C(=O)C3(CCC3)N(c3ccc(OC4CCN(C)CC4)nc3)C2=S)ccc1C#N
2. N#Cc1ccc(N2C(=O)C3(CCC3)N(c3cnc(OC4CCNCC4)nc3)C2=S)cc1C(F)(F)F
3. CN1CCC(Oc2ncc(N3C(=S)N(c4ccc(C#N)c(C(F)(F)F)c4)C(=O)C34CCC4)cn2)CC1

RESULT:
[145, 107, 166]

----------
Target: F876L mutant Androgen Receptor (AR-F876L) (Homo sapiens, UniProt P10275, F877L)
Construct: expressed in transfected cells; host or cells: LNCaP
Sequence (P10275 1-920 F877L): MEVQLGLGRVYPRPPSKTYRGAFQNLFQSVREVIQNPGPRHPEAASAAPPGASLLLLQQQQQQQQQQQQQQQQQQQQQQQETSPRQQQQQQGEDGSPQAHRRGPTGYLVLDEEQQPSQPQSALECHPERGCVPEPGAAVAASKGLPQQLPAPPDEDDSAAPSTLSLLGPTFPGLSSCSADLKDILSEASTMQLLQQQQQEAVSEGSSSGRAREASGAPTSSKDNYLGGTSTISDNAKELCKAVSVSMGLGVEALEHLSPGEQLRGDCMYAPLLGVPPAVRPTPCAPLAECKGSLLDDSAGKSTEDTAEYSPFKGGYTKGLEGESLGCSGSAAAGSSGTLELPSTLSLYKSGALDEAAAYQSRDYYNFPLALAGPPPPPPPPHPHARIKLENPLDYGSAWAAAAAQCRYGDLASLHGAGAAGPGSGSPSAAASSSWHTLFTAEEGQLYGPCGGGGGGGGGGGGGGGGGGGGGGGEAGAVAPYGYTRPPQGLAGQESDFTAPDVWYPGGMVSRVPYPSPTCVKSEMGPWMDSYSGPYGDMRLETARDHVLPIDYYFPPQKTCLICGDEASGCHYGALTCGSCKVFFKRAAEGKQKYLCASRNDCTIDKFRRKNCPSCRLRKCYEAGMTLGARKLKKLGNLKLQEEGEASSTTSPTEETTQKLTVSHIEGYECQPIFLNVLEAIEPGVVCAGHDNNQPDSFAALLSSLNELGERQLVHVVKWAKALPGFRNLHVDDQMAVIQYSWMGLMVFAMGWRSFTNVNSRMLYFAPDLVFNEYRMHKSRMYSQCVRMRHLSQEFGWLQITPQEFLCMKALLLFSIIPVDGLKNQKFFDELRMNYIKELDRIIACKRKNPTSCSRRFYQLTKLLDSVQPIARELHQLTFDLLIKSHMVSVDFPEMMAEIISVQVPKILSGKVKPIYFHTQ
Experiment: AR reporter assay, LNCaP-AR-F876L ANT (antagonist mode)
Assay type: cell-based
Procedure: […] LNCaP cells were grown to about 80% confluence, media removed and cells rinsed in Hank's balanced salt solution prior to separation from the plate with 0.05% Trypsin EDTA. […] After 1 h, plates were read for luminescence on a BMG Pherastar. […] EC/IC50 calculations were achieved utilizing calculated RLU data and data fitting macros. […]
Where a name gives a salt, the structure may show the parent alone.
observedProperty: pIC50
Answers are plain numbers, as −log10 of the molar value.

Past entries and their recorded results:
# molecule, observedProperty, numericResult
rows = [
    ("N#Cc1ccc(N2C(=O)C3(CCC3)N(c3ccc(OC4CCNCC4)cc3)C2=S)cc1C(F)(F)F", "pIC50", 6.97),
    ("N#Cc1ccc(N2C(=O)C3(CCC3)N(c3ccc(OC4CCNCC4)nc3)C2=S)cc1Cl [Compound 23, hydrochloride]", "pIC50", 7.30),
    ("CC1(C)C(=O)N(c2ccc(C#N)c(C(F)(F)F)c2)C(=S)N1c1ccc(OC2CCNCC2)cc1", "pIC50", 7.38),
]

Give one value of pIC50 per listed molecule.
1. CC1(C)C(=O)N(c2ccc(C#N)c(Cl)c2)C(=S)N1c1ccc(OC2CCNCC2)cc1 [Compound 7, hydrochloride]
2. CN1CCC(Oc2ccc(N3C(=S)N(c4ccc(C#N)c(C(F)(F)F)c4)C(=O)C34CCC4)cc2)CC1
3. CN1CCC(Oc2ccc(N3C(=S)N(c4ccc(C#N)c(Cl)c4)C(=O)C3(C)C)cc2)CC1 [Compound 8, hydrochloride]

RESULT:
1: 7.42; 2: 6.78; 3: 7.23
